- Tested on: ACHN
- PROTOCOL DESCRIPTION: NCI cytotoxicity screen, Renal Cancer panel
- Format: cell-based
- TEST PARAMETERS: Homo sapiens, single dose 10 µM, negative = lethal, read-out: Percent growth inhibition
MEASURED PARAMETER: inhibition at 10 µM (%)
Please respond with the number in % and leave the unit unwritten.

Some molecules with known inhibition at 10 µM results, for comparison:
c1cn2cc(-c3ccc4c(c3)ncn4C3CCCCC3)nc(-c3ccc4c(c3)ncn4C3CCCCC3)c2n1; 4.08
c1cn2cc(-c3ccsc3)nc(-c3ccc4c(c3)ncn4C3CCCCC3)c2n1; 4.32
c1ccc2c(-c3cn4ccnc4c(-c4ccc5c(c4)ncn5C4CCCCC4)n3)cccc2c1; 8.22

Attention now turns to another entry.
### Prompt Report measured inhibition at 10 µM on ACHN; entry: COc1ccc(-c2cn3ccnc3c(-c3ccc4c(c3)ncn4C3CCCCC3)n2)cc1
### Response 10.9

###

- Test system: SF-539
- PROTOCOL DESCRIPTION: NCI cytotoxicity screen, CNS Cancer panel
- Assay type: cell-based
- TEST PARAMETERS: Homo sapiens, single dose 10 µM, negative = lethal, read-out: Percent growth inhibition
- Protocol: Cytotoxicity was performed at National Cancer Institute (NCI), Bethesda, USA as per their protocols.
Entry flag: rule met if inhibition at 10 µM reaches 8%; rule not met if it does not.

Sample answers from the record:
Brc1cn2ccnc2c(-c2ccc3c(c2)ncn3C2CCCCC2)n1 [Compound 8]; rule not met
COc1ccc(-c2cn3ccnc3c(-c3ccc4c(c3)ncn4C3CCCCC3)n2)cc1 [Compound 10]; rule met
c1ccc2c(-c3cn4ccnc4c(-c4ccc5c(c4)ncn5C4CCCCC4)n3)cccc2c1 [Compound 12]; rule not met
c1cn2cc(-c3ccsc3)nc(-c3ccc4c(c3)ncn4C3CCCCC3)c2n1 [Compound 14]; rule not met
c1ccc(-c2cn3ccnc3c(-c3ccc4c(c3)ncn4C3CCCCC3)n2)cc1 [Compound 9]; rule not met

### Prompt Would you say c1cn2cc(-c3ccc4c(c3)ncn4C3CCCCC3)nc(-c3ccc4c(c3)ncn4C3CCCCC3)c2n1 [Compound 30] shows inhibition at 10 µM at minimum 8%?
### Response rule met

### Prompt Would you say Fc1ccc(-c2cn3ccnc3c(-c3ccc4c(c3)ncn4C3CCCCC3)n2)cc1 [Compound 13] shows inhibition at 10 µM at minimum 8%?
### Response rule not met

### Prompt Would you say c1csc(-c2cn3ccnc3c(-c3ccc4c(c3)ncn4C3CCCCC3)n2)c1 [Compound 22] shows inhibition at 10 µM at minimum 8%?
### Response rule not met

###

- Test system: SN12C
- PROTOCOL DESCRIPTION: NCI cytotoxicity screen, Renal Cancer panel
- Assay type: cell-based
- TEST PARAMETERS: Homo sapiens, single dose 10 µM, negative = lethal, read-out: Percent growth inhibition
MEASURED PARAMETER: inhibition at 10 µM (%)
Please respond with the number in % and leave the unit unwritten.

### Prompt Given the molecule c1cn2cc(-c3ccsc3)nc(-c3ccc4c(c3)ncn4C3CCCCC3)c2n1 , write its reported inhibition at 10 µM.
### Response 6.33

### Prompt Given the molecule c1ccc2c(-c3cn4ccnc4c(-c4ccc5c(c4)ncn5C4CCCCC4)n3)cccc2c1 , write its reported inhibition at 10 µM.
### Response 13.6

### Prompt Given the molecule c1ccc(-c2cn3ccnc3c(-c3ccc4c(c3)ncn4C3CCCCC3)n2)cc1 , write its reported inhibition at 10 µM.
### Response 4.83

### Prompt Given the molecule c1cn2cc(-c3ccc4c(c3)ncn4C3CCCCC3)nc(-c3ccc4c(c3)ncn4C3CCCCC3)c2n1 , write its reported inhibition at 10 µM.
### Response 13.9
